EXPERIMENTAL_SYSTEM: T1, human FGFR2b (Kaixia Biotechnology, catalog number FGR-HM1BB) (human, UniProt P21802-3 22-378)
T1 construct: extracellular domain; bought; also called hFGFR2b; human FGFR2b protein
T1 sequence (P21802 other isoform, or with tags, fused parts or gaps): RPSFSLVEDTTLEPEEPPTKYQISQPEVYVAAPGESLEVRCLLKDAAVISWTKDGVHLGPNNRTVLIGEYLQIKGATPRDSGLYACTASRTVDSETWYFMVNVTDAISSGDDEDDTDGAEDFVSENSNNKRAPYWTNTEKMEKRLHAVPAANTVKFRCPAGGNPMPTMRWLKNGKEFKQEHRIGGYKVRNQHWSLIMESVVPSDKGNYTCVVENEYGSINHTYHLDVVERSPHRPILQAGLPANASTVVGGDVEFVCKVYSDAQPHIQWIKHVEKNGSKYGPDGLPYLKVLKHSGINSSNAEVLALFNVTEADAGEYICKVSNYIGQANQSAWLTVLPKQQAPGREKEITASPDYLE
PROTOCOL_DESCRIPTION: BLI, antibody on AHC2 sensor
MEASURED_PROPERTY: Kd (nM)
Numeric only. Scale: nM

Lab note: 3C7-VH0-VL1 (antibody, human IgG1, kappa, V domains shown, humanized IgG1) VH: QVQLVQSGAEVKKPGASVKVSCKASGYTFTNYYIHWVRQAPGQGLEWMGAIYPDNGDTSYNQRFKVRATLTADTSTSTVYMELSSLRSEDTAVYYCARAFTYWGQGTTVTVSS VL: DIQMTQSPSSLSASVGDRVTITCGASENIYGALNWYQQKPGKAPKLLIYGATNLADGVPSRFSGSGSGTDYTLTISSLQPEDVATYYCQNVLSTPYTFGGGTKVEIKR gave Kd of 14

Lab note: 3H9-VH3-VL1 (antibody, human IgG1, kappa, V domains shown, humanized IgG1) VH: QVQLVQSGAEVKKPGASVKVSCKASGYTFSFYNMHWVKQAPGQGLEWIGLIYPDNGDTSYNQKFKGRATLTADTSTSTVYMELSSLRSEDTAVYYCARGGLDYWGQGTTVTVSS VL: DIQMTQSPSSLSASVGDRVTITCRASENIYSNLAWYQQKPGKSPKLLIYAATNLADGVPSRFSGSGSGTDYTLTISSLQPEDFATYYCQHFWGTPYTFGGGTKVEIKR gave Kd of 0.614
